Sourced from PubChem BioAssay (NCI)

For each entry below, report its TGI value.
# Test system: U251 CNS
# Assay procedure: NCI tumour cell line growth inhibition, 48 h

Fetch value of TGI on U251 CNS for CC(C)C1CCC/C=C/C=C/C=C/C=C/C(OC2OC(C)C(O)C(N)C2O)CC2OC(O)(CC(O)CC(O)C(O)CCC(=O)O1)CC(O)C2C(=O)O (configuration not stated) .
> 52.5 µM

Fetch value of TGI on U251 CNS for O=C(Nc1cc[c]([Sb](=[O])([OH])[OH])cc1)c1ccccc1 .
> 100 µM

Fetch value of TGI on U251 CNS for c1ccc2c(c1)-c1ccccc1C2N1CC2CCC(CC2)C1 .
30.9 µM

Fetch value of TGI on U251 CNS for O=C1c2ccccc2C2=Nc3ccncc3CN12 .
> 100 µM

Fetch value of TGI on U251 CNS for COc1ccc(C2=C(N)c3c(OC)cccc3C2=O)cc1 .
> 100 µM

Fetch value of TGI on U251 CNS for COc1cc(Nc2cnc3cc(F)c(F)cc3n2)cc(OC)c1 .
> 100 µM

Fetch value of TGI on U251 CNS for C#C[C@]1(O)CCC2C3CCc4cc(Oc5nc(F)nc(-c6c7cc8ccccc8cc7c7n6CCS7)n5)ccc4C3CCC21C (some centres not stated) .
> 100 µM

Fetch value of TGI on U251 CNS for O=C1C(=O)c2ccccc2C(O)=C1CN(CCCl)CCCl .
> 100 µM

Fetch value of TGI on U251 CNS for CNn1c(C)n[nH]c1=O .
> 100 µM

Fetch value of TGI on U251 CNS for CN(C)CC/C(=N\Nc1ccccc1)c1ccccc1 .
> 100 µM

Fetch value of TGI on U251 CNS for O=c1c2cccnc2cc(-c2ccccc2)n1CCO .
> 100 µM

Fetch value of TGI on U251 CNS for COc1ccc(-c2ccc(/C=N/n3c(COc4ccc(Cl)cc4Cl)nn(CN4CCN(C)CC4)c3=S)o2)c([N+](=O)[O-])c1 .
42.8 µM

Fetch value of TGI on U251 CNS for CCCC(C)C[C@@H](C)CC(C)/C=C(\C)c1oc(=O)c(C)c(O)c1C (some centres not stated) (tested in a mixture with another compound) .
27.6 µM

Fetch value of TGI on U251 CNS for Cc1cc(I)cc(CN(C)CCN2CCCC2)c1O .
> 95.8 µM

Fetch value of TGI on U251 CNS for O=[N+]([O-])c1ccc2[nH]ncc2c1Cl .
> 100 µM

Fetch value of TGI on U251 CNS for COc1ccc(-c2c(CN3CCOCC3)sc3nc4ccccc4n23)cc1 .
41.5 µM

Fetch value of TGI on U251 CNS for Cc1cccc(C)c1NC(=O)CCc1nnc2s/c(=C\c3ccc(Cl)cc3)c(=O)n12 .
> 100 µM

Fetch value of TGI on U251 CNS for CCOP(=O)(OCC)c1ccc(=O)[nH]c1-c1cccs1 .
> 100 µM

Fetch value of TGI on U251 CNS for CCN=c1cc2sc3cc(NCC)c(C)cc3nc-2cc1C .
6.71 µM

Fetch value of TGI on U251 CNS for CC12CCC(C(=O)N3CC=CCC3)(OC1=O)C2(C)C (configuration not stated) .
> 100 µM

Fetch value of TGI on U251 CNS for Cn1c(Nc2ccccc2)c(C=Nc2ccccc2)c(=O)n(C)c1=O .
> 100 µM

Fetch value of TGI on U251 CNS for C=CCN1C=CC(=O)[C@H](O[Si](C)(C)C(C)(C)C)[C@@H]1/C=C/c1ccccc1 .
25.2 µM
